- Test system: HeLa (human cervical cancer cells)
- EXPERIMENT: In vitro proliferation inhibition (CCK-8), HeLa
- Type: cell-based
- CONDITION SET: Homo sapiens, test (2), average±standard deviation of three wells
VALUE TYPE: IC50 (nM)

COc1cc(/C=C2\CCc3c([nH]c4ccc(C)cc34)C2=O)ccc1O [KZT-A5] : 700
CCC(CO)/N=C1\CCCc2c1[nH]c1ccc(C)cc21 (centres unmarked) [AH057, reference compound] : 630

----------
- Test system: Hep3B (human liver cancer cells)
- EXPERIMENT: In vitro proliferation inhibition (CCK-8), Hep3B
- Type: cell-based
- CONDITION SET: Homo sapiens, test (2), average±standard deviation of three wells
VALUE TYPE: IC50 (µM)

COc1cc(/C=C2\CCc3c([nH]c4ccc(C)cc34)C2=O)ccc1O [KZT-A5] : 23.5
CCC(CO)/N=C1\CCCc2c1[nH]c1ccc(C)cc21 (centres unmarked) [AH057, reference compound] : 18
